From: PubChem BioAssay (NCI)

Record form. Attribute: TGI. Fill in for each entry.
system: CCRF-CEM leukemia; test: NCI tumour cell line growth inhibition, 48 h
Where a SMILES comes first, the peptide text is derived from it. The star is where a group is joined. Boc = CC(C)(C)OC(=O)*

Quick check: TGI of O=P(O)(NCCCl)NCCCl ?
> 100 µM

Quick check: TGI of CN(C)CCCNC(=O)N/N=C/c1ccc([N+](=O)[O-])cc1 ?
> 100 µM

Quick check: TGI of O=c1c2ccc3cccc4c(=O)c5ccc6cccc1c6c5-c2c34 ?
> 50 µM

Quick check: TGI of O=C(Cn1ccnc1[N+](=O)[O-])c1ccccc1 ?
> 100 µM

Quick check: TGI of CC(C)(C)OC(=O)NC(Cc1ccc(O)cc1)C(=O)NC(CCCCN)C(=O)O (stereo not drawn) (Boc-Tyr-Lys-OH; configuration not given here) ?
92.7 µM

Quick check: TGI of N=C(N)N=Nc1ccc(NN=C(N)N)c2c1ncc1c2nc2sccn21 ?
> 100 µM

Quick check: TGI of C=C1OC(=O)[C@]2([C@@H](/C=C/C)C=CC(=O)[C@H]2O)[C@@H]1O ?
> 100 µM

Quick check: TGI of CC(CC[C@@H](C)C1CCC2[C@@H]3CC(O)C4CC(O)[C@@H](O)C[C@]4(C)C3CC[C@@]21C)C(C)(C)C (some centres not stated) ?
> 100 µM

Quick check: TGI of Cc1cc(NS(=O)(=O)c2ccc(NC(=O)c3cccn4c(=O)c5ccccc5nc34)cc2)no1 ?
> 100 µM

Quick check: TGI of CC(C)(C)C1CCC2c3c([nH]c4ccccc34)C3C(=O)N(c4cccc([N+](=O)[O-])c4)C(=O)C3C2C1 (configuration not stated) ?
> 100 µM

Quick check: TGI of Cc1cc(C)c(S(=O)(=O)N2CCN(S(=O)(=O)c3c(C)cc(C)cc3C)OCCCCCO2)c(C)c1 ?
> 100 µM

Quick check: TGI of Clc1ccccc1/C=C\C1(c2ccccc2)OCCO1 ?
53.8 µM

Quick check: TGI of O=[N+]([O-])c1ccc2c(c1)Sc1ccccc1N2CCCCCl ?
> 100 µM

Quick check: TGI of O=c1cc(-c2ccccc2)oc2cc(Oc3nnnn3-c3ccccc3)ccc12 ?
> 100 µM

Quick check: TGI of COc1ccc(/C=C2\C(=O)N(C(=O)c3ccc(NC(C)=O)cc3)N=C2C)cc1 ?
> 100 µM

Quick check: TGI of CCN(CC)C(=S)N/N=C(\C)c1cccc(C)n1 ?
> 100 µM

Quick check: TGI of C1CSCCCSCCCSCCCSCCCSC1 ?
32.4 µM

Quick check: TGI of COc1ccccc1/C=C1\Sc2scc(-c3ccc(O)c(O)c3)[n+]2C1=O ?
8.64 µM

Quick check: TGI of CN(C)CCCOc1ccc(OCCCN(C)C)c2c1C(=O)c1ccccc1C2=O ?
6.95 µM

Quick check: TGI of O=C1Nc2cc(Cl)ccc2/C1=C\c1c(-c2ccc(F)cc2)nc2ccccn12 ?
> 100 µM

Quick check: TGI of C[N+](C)(CCNC(=O)c1cccc2cc3ccccc3nc12)Cc1ccc([N+](=O)[O-])cc1 ?
> 100 µM

Quick check: TGI of COc1ccc2cc1Oc1ccc(cc1)CC1c3cc4c(cc3CCN1C)Oc1c(OC)cc3c(c1O4)C(C2)N(C)CC3 (configuration not stated) ?
6.69 µM
